Test system: Trichoderma viride
MEASUREMENT_PROTOCOL: Antimicrobial activity against Hypocrea rufa ATCC 28020 after 48 hr by agar dilution method
Type: functional
RECORDED_CONDITIONS: ATCC 28020, 48 h
ASSAY_READOUT: MIC (µg/mL)

>>> experimental_value("C=C(CCC1(OC)O[C@H]2C[C@H]3[C@@H]4CC[C@H]5C[C@@H](O[C@@H]6O[C@H](CO)[C@H](O[C@@H]7O[C@H](CO)[C@@H](O)[C@H](O[C@@H]8O[C@H](CO)[C@@H](O)[C@H](O)[C@H]8O)[C@H]7O[C@@H]7O[C@H](CO)[C@@H](O)[C@H](O[C@@H]8O[C@H](CO)[C@@H](O)[C@H](O)[C@H]8O)[C@H]7O)[C@H](O)[C@H]6O)[C@H](O)C[C@]5(C)[C@H]4CC[C@]3(C)[C@H]2[C@@H]1C)CO[C@@H]1O[C@H](CO)[C@@H](O)[C@H](O)[C@H]1O (some centres not stated) [Capsicoside E]")
500

Source: ChEMBL document CHEMBL3044709
